test: Percent encapsulation of mRNA in lipid nanoparticles (Quant-iT Ribogreen); format: physicochemical; settings: mEPO mRNA
observed_property: % Encap. (%)
The response must be a number in % with no trailing unit.

> print(dat)
                                   compound  reported.result
1  CCCCC/C=C\C/C=C\CCCCCCCC(=O)OCC(COC(=O)CCCCCCC/C=C\C/C=C\CCCCC)OC(=O)CCC(CCCCCCCCCCCC)OC(=O)OCCCN(C)C (stereo not drawn)             96.2
2  CCCCCCCCCCCCC(CCOC(=O)CCCCC(COC(=O)CCCCCCC)COC(=O)CCCCCCC)OC(=O)OCCCN(CC)CC (stereo not drawn)             95.8

Next item in the queue.
Q. Which value of % Encap. has been reported for CCCCCCCCCCCCC(CCOC(=O)CCCCC(OCCCCCCCC)OCCCCCCCC)OC(=O)OCCCN(CC)CC (stereo not drawn) in the records?
A. 97.9
